These measurements were taken from ChEMBL document CHEMBL5724914.

Settings: human gut metagenome, 24 h, 2 µM; also: call rule not given here
Observable: Bacterial Biotransformation

// worked examples, Bacterial Biotransformation included
{"Compound": "CN(C(=O)CN(CCO)CC(=O)N(C)C(C)(C)Cc1ccccc1)C(C)(C)Cc1ccccc1 [OXETHAZAINE]", "Bacterial Biotransformation": "Compound NOT metabolized"}
{"Compound": "COCCc1ccc(OCC(O)CNC(C)C)cc1.COCCc1ccc(OCC(O)CNC(C)C)cc1.O=C(O)C(O)C(O)C(=O)O (configuration not stated) [METOPROLOL TARTRATE]", "Bacterial Biotransformation": "Compound NOT metabolized"}
{"Compound": "CN1C(C(=O)Nc2ccccn2)=C(O)c2sccc2S1(=O)=O [TENOXICAM]", "Bacterial Biotransformation": "Compound NOT metabolized"}
{"Compound": "CN(C)CCc1c[nH]c2ccc(Cn3cncn3)cc12.O=C(O)c1ccccc1 [RIZATRIPTAN BENZOATE]", "Bacterial Biotransformation": "Compound NOT metabolized"}
{"Compound": "CCOC(=O)[C@H](CCc1ccccc1)N[C@@H](C)C(=O)N1[C@H](C(=O)O)C[C@@H]2CCC[C@@H]21", "Bacterial Biotransformation": "Compound NOT metabolized"}

Bacterial Biotransformation reading for C[C@@H](CO)NC(=O)[C@@H]1C=C2c3cccc4[nH]cc(c34)C[C@H]2N(C)C1.O=C(O)/C=C\C(=O)O [ERGONOVINE MALEATE] : Compound metabolized

Bacterial Biotransformation reading for CCCc1nc(C(C)(C)O)c(C(=O)OCc2oc(=O)oc2C)n1Cc1ccc(-c2ccccc2-c2nnn[nH]2)cc1 [OLMESARTAN MEDOXOMIL] : Compound metabolized
